Every entry's value here was drawn from patent US9101613B2.

IC50 by entry:
Biological target: MT-3 receptor (Mesocricetus auratus, UniProt A0ABM2YAB8)
Construct: from tissue; host or cells: hamster brain membranes
Sequence (A0ABM2YAB8 1-231): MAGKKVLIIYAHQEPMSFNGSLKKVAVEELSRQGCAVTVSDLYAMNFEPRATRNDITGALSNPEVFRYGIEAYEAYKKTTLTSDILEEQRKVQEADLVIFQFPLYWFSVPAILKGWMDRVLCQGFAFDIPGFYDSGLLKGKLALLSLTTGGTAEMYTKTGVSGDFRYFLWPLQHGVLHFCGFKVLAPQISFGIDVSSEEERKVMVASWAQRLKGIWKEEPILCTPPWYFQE
Assay: 125I-melatonin binding in hamster brain membranes, MT-3
Details: 0.1 nM 125I-melatonin, 30 min; read-out: MT-3 receptor binding IC50

Reference set (4 entries):
input: # IC50 lookup, item COc1ccc2[nH]cc(CCNC(=O)c3ccc(=O)oc3)c2c1
output: 980 nM

input: Same thing, different molecule: COc1ccc2[nH]cc(CCNC(=O)c3cc(=O)c(OC)co3)c2c1
output: 230 nM

input: Then this molecule: COc1ccc2[nH]cc(CCNC(C)=O)c2c1 [Melatonin, N-acetyl-5-methoxy-tryptamine, reference compound]
output: 47 nM

input: What would you report for COc1ccc2[nH]cc(CCNC(=O)c3cc(=O)cco3)c2c1 ?
output: 310 nM

Would you kindly look at the next entry?
input: Fill in the blank: the reported IC50 of COc1ccc2[nH]cc(CCNC(=O)c3cc(=O)cc(C(=O)O)o3)c2c1 is ____.
output: 2200 nM
